Assignment: determine reported IC50 for the given compounds.
Target: human PAD4 (hPAD4) (Homo sapiens)
Assay: RFMS human PAD4 functional assay (rapid-fire mass spectrum)
Conditions: 5 nM hPAD4 enzyme, 250 μM BAEE, 50 μM Calcium; 30 min preincubation, 90 min reaction at 37° C.
Answers are plain numbers, in nM.

Recorded results for 10 compounds are shown here.
{"columns": ["compound", "measured-on", "units-of-measure", "IC50"],
 "data": [
  ["COc1cc(C(=O)N2C[C@H]3CC[C@@H]2[C@@H]3N)cc2nc(-c3cc4cccnc4n3CC3CC3)n(C3CN(c4ccccc4)C3)c12 [Example 81]", "human PAD4 (hPAD4) (Homo sapiens)", "nM", 403],
  ["COc1nccc(N2CC(Cn3c(-c4cc5cccnc5n4CC4CC4)nc4cc(C(=O)N5C[C@H]6CC[C@@H]5[C@@H]6N)cc(OC)c43)C2)n1 [Example 20]", "human PAD4 (hPAD4) (Homo sapiens)", "nM", 57],
  ["COc1cc(C(=O)N2C[C@H](N)C[C@@H](F)C2)cc2nc(-c3cc4ccccc4n3CC3CC3)n(Cc3ccccn3)c12 [Example 293]", "human PAD4 (hPAD4) (Homo sapiens)", "nM", 2660],
  ["COc1cc(C(=O)N2C[C@H]3CC[C@@H]2[C@@H]3N)cc2nc(-c3cc4ccccc4n3CC3CC3)n(CC3CCC(=O)N3)c12 (stereo partly shown) [Example 275]", "human PAD4 (hPAD4) (Homo sapiens)", "nM", 298],
  ["COc1cc(C(=O)N2CC3CCC2[C@@H]3N)cc2nc(-c3csc4ccc(Cl)cc34)n(CC3CN(c4cncc(C(N)=O)c4)C3)c12 (stereo partly shown) [Example 322]", "human PAD4 (hPAD4) (Homo sapiens)", "nM", 2050],
  ["COc1cc(C(=O)N2CC3CCC2[C@@H]3N)cc2nc(-c3cc4ccccc4n3CC3CC3)n(Cc3cnn(-c4ccc[n+]([O-])c4)c3)c12 (stereo partly shown) [Example 396]", "human PAD4 (hPAD4) (Homo sapiens)", "nM", 51],
  ["COc1cc(C(=O)N2C[C@H]3CC[C@@H]2[C@@H]3N)cc2nc(-c3cc4cccnc4n3CC3CC3)n(CC3CN(c4ccccc4C(C)=O)C3)c12 [Example 85]", "human PAD4 (hPAD4) (Homo sapiens)", "nM", 638],
  ["COc1cc(C(=O)N2C[C@H](N)C[C@@H](F)C2)cc2nc(-c3cc4ccccc4n3CC3CC3)n(CC3CCC(=O)N3)c12 (stereo partly shown) [Example 283]", "human PAD4 (hPAD4) (Homo sapiens)", "nM", 895],
  ["COc1cc(C(=O)N2CC3CCC2[C@@H]3N)cc2nc(-c3cc4ccccc4n3CC3CC3)n(Cc3cnn(-c4cccnc4O)c3)c12 (stereo partly shown) [Example 384]", "human PAD4 (hPAD4) (Homo sapiens)", "nM", 41],
  ["COc1cc(C(=O)N2C[C@H]3CC[C@@H]2[C@@H]3N)cc2nc(-c3cc4ccccc4n3CC3CC3)n(Cc3cccnc3)c12 [Example 246]", "human PAD4 (hPAD4) (Homo sapiens)", "nM", 25]
]}

Give IC50 for all compounds that follow.
1. COc1cc(C(=O)N2CC3CCC2[C@@H]3N)cc2nc(-c3cc4ccccc4n3CC3CC3)n(Cc3cnn(-c4ccncc4)c3)c12 (stereo partly shown) [Example 362]
2. COc1cc(C(=O)N2CC3CCC2[C@@H]3N)cc2nc(-c3csc4ccc(Cl)cc34)n(CC3CN(C(=O)OCc4ccccc4)C3)c12 (stereo partly shown) [Example 321]

Outgoing:
25
1530

Incoming: So what does the record say about IC50 for COc1cc(C(=O)N2C[C@H]3CC[C@@H]2[C@@H]3N)cc2nc(-c3cc4ccccc4n3CC3CC3)n(CC3CN(C(=O)c4ccc(O)cc4)C3)c12 [Example 140] ?
Outgoing: 14

----------
Target: human PAD4 (hPAD4) (Homo sapiens)
Test: RFMS human PAD4 functional assay (rapid-fire mass spectrum)
Details: 5 nM hPAD4 enzyme, 250 μM BAEE, 50 μM Calcium; 30 min preincubation, 90 min reaction at 37° C.
Assignment: determine reported IC50 for the given compounds.
Numbers only, in nM.

Recorded results for 3 compounds are shown here.
{"columns": ["compound", "IC50 / nM"],
 "data": [
  ["COc1cc(C(=O)N2C[C@H]3CC[C@@H]2[C@@H]3N)cc2nc(-c3cc4cccnc4n3CC3CC3)n(C3CN(C(C)=O)C3)c12", 884],
  ["COc1cc(C(=O)N2CC3CCC2[C@@H]3N)cc2nc(-c3cc4cccnc4n3CC3CC3)n(CC3CN(C(=O)c4cccc(F)c4F)C3)c12 (stereo partly drawn)", 23],
  ["COc1cc(C(=O)N2C[C@H]3CC[C@@H]2[C@@H]3N)cc2nc(-c3csc4ccc(Cl)cc34)n(CC3CN(c4ccnc(C)n4)C3)c12", 1880]
]}

Give IC50 for all compounds that follow.
1. COc1cc(C(=O)N2C[C@H]3CC[C@@H]2[C@@H]3N)cc2nc(-c3cc4cccnc4n3CC3CC3)n(CC3CN(S(=O)(=O)C4CC4)C3)c12
2. Cc1cc(C(=O)N2CC3CCC2[C@@H]3N)cc2nc(-c3cc4cccnc4n3CC3CC3)n(CC3CN(C(=O)c4ccccc4)C3)c12 (stereo partly drawn)
3. COc1cc(C(=O)N2C[C@H]3CC[C@@H]2[C@@H]3N)cc2nc(-c3cc4cccnc4n3CC3CC3)n(C[C@@H]3CCN(c4ccnc(C)n4)C3)c12

Outgoing:
1. 219
2. 65
3. 153

----------
Molecular target: human PAD4 (hPAD4) (Homo sapiens)
Assay: RFMS human PAD4 functional assay (rapid-fire mass spectrum)
Conditions: 5 nM hPAD4 enzyme, 250 μM BAEE, 50 μM Calcium; 30 min preincubation, 90 min reaction at 37° C.
Assignment: determine reported pIC50 for the given compounds.
Answers are plain numbers, as −log10 of the molar value.

Recorded results for 5 compounds are shown here.
{"columns": ["compound", "measured-quantity", "test-value"],
 "data": [
  ["COc1cc(C(=O)N2C[C@H]3CC[C@@H]2[C@@H]3N)cc2nc(-c3cc4cccnc4n3CC3CC3)n(C3CCN(C(=O)c4cnc(C#N)nc4)CC3)c12", "pIC50", 6.66],
  ["COc1cc(C(=O)N2C[C@H](N)C[C@@H](F)C2)cc2nc(-c3cc4ccccc4n3CC3CC3)n(Cc3csc(C)n3)c12", "pIC50", 5.99],
  ["N[C@@H]1C2CCC1N(C(=O)c1cc(F)c3c(c1)nc(-c1cc4cccnc4n1CC1CC1)n3CC1CN(C(=O)c3ccncc3)C1)C2 (stereo partly drawn)", "pIC50", 7.08],
  ["COc1cc(C(=O)N2CC3CCC2[C@@H]3N)cc2nc(-c3cc4ccccc4n3CC3CC3)n(C[C@H]3CCN(c4ccnc(C#N)n4)C3)c12 (stereo partly drawn)", "pIC50", 7.74],
  ["COc1cc(C(=O)N2C[C@H]3CC[C@@H]2[C@@H]3N)cc2nc(-c3cc4cccnc4n3C)n(CC3CN(c4cncnc4C#N)C3)c12 [Example 78]", "pIC50", 6.43]
]}

Now examine the next entry.
Incoming: So what does the record say about pIC50 for "COc1cc(C(=O)N2C[C@H](N)C[C@@H](F)C2)cc2nc(-c3cc4ccccc4n3CC3CC3)n(CC3CN(c4cncc(C#N)c4)C3)c12" ?
Outgoing: 7.06

----------
Target: human PAD4 (hPAD4) (Homo sapiens, UniProt Q9UM07)
Sequence (Q9UM07 whole entry): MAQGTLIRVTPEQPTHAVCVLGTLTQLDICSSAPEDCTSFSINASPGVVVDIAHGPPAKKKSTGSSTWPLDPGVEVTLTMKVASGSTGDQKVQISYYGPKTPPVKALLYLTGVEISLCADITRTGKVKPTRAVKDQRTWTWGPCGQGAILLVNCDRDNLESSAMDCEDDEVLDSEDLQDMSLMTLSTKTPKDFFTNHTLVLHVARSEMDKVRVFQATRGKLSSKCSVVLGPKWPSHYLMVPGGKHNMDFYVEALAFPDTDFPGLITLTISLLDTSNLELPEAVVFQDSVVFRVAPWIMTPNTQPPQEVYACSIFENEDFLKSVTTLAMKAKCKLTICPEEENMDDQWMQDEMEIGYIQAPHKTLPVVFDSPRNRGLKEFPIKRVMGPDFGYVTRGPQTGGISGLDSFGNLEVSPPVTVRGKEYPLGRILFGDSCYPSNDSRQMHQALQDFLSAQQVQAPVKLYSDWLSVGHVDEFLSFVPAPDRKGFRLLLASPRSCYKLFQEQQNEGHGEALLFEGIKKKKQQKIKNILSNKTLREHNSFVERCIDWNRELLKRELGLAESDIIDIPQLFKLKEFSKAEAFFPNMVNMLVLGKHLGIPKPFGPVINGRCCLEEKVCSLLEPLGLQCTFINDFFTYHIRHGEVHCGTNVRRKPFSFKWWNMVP
Test: RFMS human PAD4 functional assay (rapid-fire mass spectrum)
Conditions: 5 nM hPAD4 enzyme, 250 μM BAEE, 50 μM Calcium; 30 min preincubation, 90 min reaction at 37° C.
Assignment: determine reported pIC50 for the given compounds.
Give bare numbers, as −log10 of the molar value.

{"columns": ["compound", "pIC50"],
 "data": [
  ["COc1cc(C(=O)N2CC3CCC2[C@@H]3N)cc2nc(-c3cc4cccnc4n3CC3CC3)n(Cc3cnn(-c4cccc(C)n4)c3)c12 (stereo partly drawn)", 7.66],
  ["COc1cc(C(=O)N2CC3CCC2[C@@H]3N)cc2nc(-c3cc4cccnc4n3CC3CC3)n(CC3CN(C(=O)c4ccc(C#N)c(F)c4)C3)c12 (stereo partly drawn)", 7.18]
]}

Now examine the next entry.
Incoming: So what does the record say about pIC50 for "COc1cc(C(=O)N2C[C@H]3CC[C@@H]2[C@@H]3N)cc2nc(-c3cc4cccnc4n3CC3CC3)n(CC3CN(S(C)(=O)=O)C3)c12" ?
Outgoing: 6.30

----------
Biological target: human PAD4 (hPAD4) (Homo sapiens, UniProt Q9UM07)
Assay: RFMS human PAD4 functional assay (rapid-fire mass spectrum)
Settings: 5 nM hPAD4 enzyme, 250 μM BAEE, 50 μM Calcium; 30 min preincubation, 90 min reaction at 37° C.
measured-quantity: IC50

Recorded results for 5 compounds are shown here.
{"columns": ["compound", "IC50"],
 "data": [
  ["CCOC(=O)N1CC(Cn2c(-c3cc4cccnc4n3CC3CC3)nc3cc(C(=O)N4C[C@H]5CC[C@@H]4[C@@H]5N)cc(OC)c32)C1 [Example 130]", "128 nM"],
  ["COc1cc(C(=O)N2CC3CCC2[C@@H]3N)cc2nc(-c3cc4ccccc4n3CC3CC3)n(Cc3cnn(-c4cccnc4)c3)c12 (stereo partly drawn) [Example 368]", "29 nM"],
  ["COc1cc(C(=O)N2CC3CCC2[C@@H]3N)cc2nc(-c3cc4cccnc4n3CC3CC3)n(CC3CN(C(=O)c4cc(F)ccc4F)C3)c12 (stereo partly drawn) [Example 422]", "22 nM"],
  ["COc1cc(C(=O)N2C[C@H]3CC[C@@H]2[C@@H]3N)cc2nc(-c3cc4ccccc4n3CC3CC3)n(Cc3cnn(Cc4ccccc4)c3)c12 [Example 259]", "44 nM"],
  ["COc1cc(C(=O)N2CC3CCC2[C@@H]3N)cc2nc(-c3cc4ccccc4n3CC3CC3)n(CC3CC3)c12 (stereo partly drawn) [Example 476]", "100 nM"]
]}

Incoming: So what does the record say about IC50 for CCn1cc(Cn2c(-c3cc4ccccc4n3CC3CC3)nc3cc(C(=O)N4C[C@H](N)C[C@@H](F)C4)cc(OC)c32)cn1 [Example 487] ?
Outgoing: 46 nM
